Examples of compounds with documented GI50 follow.
- Test system: HeLa cells
- EXPERIMENT SUMMARY: sulforhodamine B (SRB) antiproliferative assay
- Assay type: cell-based, human
- ASSAY CONDITIONS: Homo sapiens, HeLa; Table 5; read-out: GI50 in HeLa
MEASURED ENDPOINT: GI50 (nM)

{"COMPOUND": "CC(=O)O[C@H]1[C@H]2[C@@H]([C@@H](O)[C@@H](NC(=O)CCCN=[N+]=[N-])[C@H]3C[C@@H]4O[C@@H]4[C@H](OC(C)=O)[C@]23C)[C@@H]2[C@@H](O)[C@@H]3[C@H]([C@H](C)[C@H]4O[C@]45OC(=O)[C@@](C)(O)[C@]35C)[C@@]2(C)[C@H]1OC(C)=O [152E]", "VALUE COMPARATOR": "=", "EXPERIMENTAL VALUE": 90}
{"COMPOUND": "CC(=O)O[C@H]1[C@H]2[C@@H]([C@@H](O)[C@@H](NC(=O)CCCn3cc(CNC(=O)CCCC[C@@H]4SC[C@@H]5NC(=O)N[C@@H]54)nn3)[C@H]3C[C@@H]4O[C@@H]4[C@H](OC(C)=O)[C@]23C)[C@@H]2[C@@H](O)[C@@H]3[C@H]([C@H](C)[C@H]4O[C@]45OC(=O)[C@@](C)(O)[C@]35C)[C@@]2(C)[C@H]1OC(C)=O [154C]", "VALUE COMPARATOR": ">", "EXPERIMENTAL VALUE": 10000}
{"COMPOUND": "CC(=O)O[C@H]1[C@H]2C([C@@H](O)[C@@H](NC(=O)c3ccc4c(c3)C(=O)OC43c4ccc(OC(=O)C(C)(C)C)cc4Oc4cc(OC(=O)C(C)(C)C)ccc43)[C@H]3C[C@@H]4O[C@@H]4[C@H](OC(C)=O)[C@@]32C)[C@@H]2[C@@H](O)[C@@H]3[C@H]([C@H](C)[C@H]4O[C@]45OC(=O)[C@@](C)(O)[C@]35C)[C@@]2(C)[C@H]1OC(C)=O (stereo partly drawn) [164B]", "VALUE COMPARATOR": "=", "EXPERIMENTAL VALUE": 31}
